meta.source: patent US6787525B1

# Tested on: HCT-15
# assay-comment: In vitro cytostatic effect (SRB): HCT-15, Intestinal cancer
# condition: read-out: LC50, 48-hour incubation
parameter: CC50

# get_value(readout='CC50', item= CCCCCCCCCCCCCCCCCCOC(COP(=O)(O)OCC1OC(n2cc(F)c(=O)[nH]c2=O)CC1O)COP(=O)(O)OCC1OC(n2ccc(N)nc2=O)C(O)C1O (racemic) )
> 100 µM

====

# System: HT29
# assay-comment: In vitro cytostatic effect (SRB): HT29, Intestinal cancer
# condition: read-out: LC50, 48-hour incubation
parameter: CC50

- CCCCCCCCCCCCCCCCCCOC(COP(=O)(O)OCC1OC(n2cc(F)c(=O)[nH]c2=O)CC1O)COP(=O)(O)OCC1OC(n2ccc(N)nc2=O)C(O)C1O (racemic): > 100 µM

Query: CC50; subject: Nc1ccn(C2CCC(COP(=O)(O)OCC(O)COP(=O)(O)OCC3OC(n4cc(F)c(=O)[nH]c4=O)CC3O)O2)c(=O)n1 (racemic)
> 100 µM

====

# System: HCT-116
# assay-comment: In vitro cytostatic effect (SRB): HCT-116, Intestinal cancer
# condition: read-out: LC50, 48-hour incubation
CC50 values, listed per item

- CCCCCCCCCCCCCCCCCCOC(COP(=O)(O)OCC1OC(n2cc(F)c(=O)[nH]c2=O)CC1O)COP(=O)(O)OCC1OC(n2ccc(N)nc2=O)C(O)C1O (racemic): > 100 µM

In the following, a different compound is considered.
Entry Nc1ccn(C2CCC(COP(=O)(O)OCC(O)COP(=O)(O)OCC3OC(n4cc(F)c(=O)[nH]c4=O)CC3O)O2)c(=O)n1 (racemic) : reported CC50 = ?
> 100 µM

====

# Test system: SK-MEL-2
# assay-comment: In vitro cytostatic effect (SRB): SK-MEL-2, Melanoma
# condition: read-out: LC50, 48-hour incubation
parameter: CC50

- Nc1ccn(C2CCC(COP(=O)(O)OCC(O)COP(=O)(O)OCC3OC(n4cc(F)c(=O)[nH]c4=O)CC3O)O2)c(=O)n1 (racemic) [NSC 704533]: > 100 µM

Now, please, on to the next compound.
Fill blank: measured CC50 of the compound CCCCCCCCCCCCCCCCCCOC(COP(=O)(O)OCC1OC(n2cc(F)c(=O)[nH]c2=O)CC1O)COP(=O)(O)OCC1OC(n2ccc(N)nc2=O)C(O)C1O (racemic) [NSC 698688-A/1] is ____.
> 100 µM

====

# System: CCRF-CEM
# assay-comment: In vitro cytostatic effect (SRB): CCRF-CEM, Leukemia
# condition: read-out: LC50, 48-hour incubation
# CC50 per entry

- CCCCCCCCCCCCCCCCCCOC(COP(=O)(O)OCC1OC(n2cc(F)c(=O)[nH]c2=O)CC1O)COP(=O)(O)OCC1OC(n2ccc(N)nc2=O)C(O)C1O (racemic) [NSC 698688-A/1]: > 100 µM

// below: CC50 requested for another molecule
Reported CC50 for CCRF-CEM, given Nc1ccn(C2CCC(COP(=O)(O)OCC(O)COP(=O)(O)OCC3OC(n4cc(F)c(=O)[nH]c4=O)CC3O)O2)c(=O)n1 (racemic) [NSC 704533] ?
> 100 µM

====

# System: MCF7
# assay-comment: In vitro cytostatic effect (SRB): MCF7, Breast cancer
# condition: read-out: LC50, 48-hour incubation
parameter: CC50

Find CC50 (MCF7) for the entry CCCCCCCCCCCCCCCCCCOC(COP(=O)(O)OCC1OC(n2cc(F)c(=O)[nH]c2=O)CC1O)COP(=O)(O)OCC1OC(n2ccc(N)nc2=O)C(O)C1O (racemic) [NSC 698688-A/1]
> 100 µM
